test system: 41M; assay: Concentration required to inhibit growth of the human ovarian cancer 41M cells by 50% after 96h exposure; type: functional, cell-based
parameter: IC50 (µM)

sequence-code	observed-result
CISPLATIN	1.4
